Numbers sourced from patent US20240391954A1.

# MEASUREMENT TARGET: human MC4R receptor (human, UniProt P32245 1-332)
# Sequence (P32245 whole entry): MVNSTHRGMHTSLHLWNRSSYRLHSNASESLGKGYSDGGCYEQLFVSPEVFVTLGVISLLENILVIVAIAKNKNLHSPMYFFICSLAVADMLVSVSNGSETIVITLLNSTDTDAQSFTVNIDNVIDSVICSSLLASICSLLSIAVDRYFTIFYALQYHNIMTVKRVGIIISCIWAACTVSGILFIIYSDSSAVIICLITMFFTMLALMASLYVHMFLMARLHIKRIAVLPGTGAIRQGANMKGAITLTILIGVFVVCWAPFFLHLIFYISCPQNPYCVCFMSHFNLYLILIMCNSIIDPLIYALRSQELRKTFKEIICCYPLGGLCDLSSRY
# ASSAY PROTOCOL: cell-based or functional assay
Positions of bridges follow the written chain, without caps; N, C: chain ends. Non-standard residues stand in square brackets, D forms with d. Cit = NC(=O)NCCC[C@H](N)C(=O)O; NMeA = CN[C@@H](C)C(=O)O; Nle = CCCC[C@H](N)C(=O)O; Aib = CC(C)(N)C(=O)O
Would you mind telling me the reported cAMP EC50 of each entry?

Please review the entries below; each comes with its answer.
Ac-RC[NMeA]R[dF]R[dW]C-NH2 (disulfide 2-8; SMILES CC(=O)N[C@@H](CCCNC(=N)N)C(=O)N[C@H]1CSSC[C@@H](C(N)=O)NC(=O)[C@@H](Cc2c[nH]c3ccccc23)NC(=O)[C@H](CCCNC(=N)N)NC(=O)[C@@H](Cc2ccccc2)NC(=O)[C@H](CCCNC(=N)N)NC(=O)[C@H](C)N(C)C1=O) [CTX-1269] ... 13 nM
Ac-C[Aib][Cit][dF]RFC-NH2 (disulfide 1-7; SMILES CC(=O)N[C@H]1CSSC[C@@H](C(N)=O)NC(=O)[C@H](Cc2ccccc2)NC(=O)[C@H](CCCNC(=N)N)NC(=O)[C@@H](Cc2ccccc2)NC(=O)[C@H](CCCNC(N)=O)NC(=O)C(C)(C)NC1=O) [CTX-1636] ... 791 nM
{CH2CO}-[dA]H[dF]RFC-NH2 (thioether N-6; SMILES C[C@H]1NC(=O)CSC[C@@H](C(N)=O)NC(=O)[C@H](Cc2ccccc2)NC(=O)[C@H](CCCNC(=N)N)NC(=O)[C@@H](Cc2ccccc2)NC(=O)[C@H](Cc2c[nH]cn2)NC1=O) [CTX-1656] ... 1400 nM
{CH2CO}-[Aib][Cit][dF]RFC-NH2 (thioether N-6) [CTX-1652] ... > 10000 nM
Ac-C[dA]R[dF]RWC-NH2 (disulfide 1-7; SMILES CC(=O)N[C@H]1CSSC[C@@H](C(N)=O)NC(=O)[C@H](Cc2c[nH]c3ccccc23)NC(=O)[C@H](CCCNC(=N)N)NC(=O)[C@@H](Cc2ccccc2)NC(=O)[C@H](CCCNC(=N)N)NC(=O)[C@@H](C)NC1=O) [CTX-1627] ... 1.4 nM

Provide cAMP EC50 for all items below, preserving their order.
1. Ac-R[Nle]C[Cit][dF]R[dW]C-NH2 (disulfide 3-8; SMILES CCCC[C@H](NC(=O)[C@H](CCCNC(=N)N)NC(C)=O)C(=O)N[C@H]1CSSC[C@@H](C(N)=O)NC(=O)[C@@H](Cc2c[nH]c3ccccc23)NC(=O)[C@H](CCCNC(=N)N)NC(=O)[C@@H](Cc2ccccc2)NC(=O)[C@H](CCCNC(N)=O)NC1=O) [CTX-1608]
2. Ac-R[Nle]CR[dF]R[dW]C-NH2 (disulfide 3-8) [CTX-1616]

A.
1. 288 nM
2. 16 nM
